- System: NF-κB
- protocol notes: NF-κB activity in NIH3T3-KBF-Luc cells stimulated with TNFα (luciferase)
- Assay type: cell-based
- protocol conditions: 25 μM, +30 ng/ml TNFα
assay metric: % Activation (NF-κB; TNFα = 100%)

Solved entries (count: 2):
• COc1ccc(-c2coc3cc(O)cc(O[C@@H]4O[C@@H](C)[C@H](O)[C@@H](O)[C@H]4O)c3c2=O)cc1 [BR2, Biochanin A 5-O-α-L-rhamnoside] = 163.2%
• O=c1cc(-c2ccccc2)oc2cc(O)cc(O)c12 = 293.5%

Short answer please: % Activation (NF-κB; TNFα = 100%), NF-κB, entry C[C@@H]1O[C@@H](Oc2cc(O)cc3c2C(=O)CC(c2ccc(O)cc2)O3)[C@H](O)[C@H](O)[C@H]1O (mixture of isomers) [NR1, Naringenin-5-O-α-L-rhamnoside]
136.5%

And then COc1ccc(-c2cc(=O)c3c(O)cc(O)cc3o2)cc1O , what is it?
327.9%

And then CC1O[C@@H](Oc2cc(O[C@@H]3OC(C)[C@H](O)C(O)C3O)c3c(=O)cc(-c4ccccc4)oc3c2)C(O)C(O)[C@H]1O (stereo partly drawn) [CR1, Chrysin-di-5,7-O-α-L-rhamnoside] , what is it?
120.8%

And then COc1ccc(-c2coc3cc(O[C@@H]4O[C@@H](C)[C@H](O)[C@@H](O)[C@H]4O)cc(O[C@@H]4O[C@@H](C)[C@H](O)[C@@H](O)[C@H]4O)c3c2=O)cc1 [BR1, Biochanin A-5,7-di-O-α-L-rhamnoside] , what is it?
141.4%

* * *

- Tested on: HaCaT cells
- protocol notes: Glucose uptake (2-NBDG) in HaCaT keratinocytes
- Assay type: cell-based
- protocol conditions: 25 μM, +2NBDG 50 μM, 24 h
Quick rule for you: % Glucose uptake (Rosiglitazone = 100%) at 80% or higher means Satisfied, lower means Not satisfied.

• CC1O[C@@H](Oc2cc(O[C@@H]3OC(C)[C@H](O)C(O)C3O)c3c(=O)cc(-c4ccccc4)oc3c2)C(O)C(O)[C@H]1O (stereo partly drawn) [CR1, Chrysin-di-5,7-O-α-L-rhamnoside] = Not satisfied
• COc1ccc(-c2coc3cc(O)cc(O[C@@H]4O[C@@H](C)[C@H](O)[C@@H](O)[C@H]4O)c3c2=O)cc1 [BR2, Biochanin A 5-O-α-L-rhamnoside] = Not satisfied
• C[C@@H]1O[C@@H](Oc2cc(O)cc3c2C(=O)CC(c2ccc(O)cc2)O3)[C@H](O)[C@H](O)[C@H]1O (mixture of isomers) [NR1, Naringenin-5-O-α-L-rhamnoside] = Satisfied
• CC1O[C@@H](Oc2cc(O)cc3oc(-c4ccccc4)cc(=O)c23)C(O)C(O)[C@H]1O (stereo partly drawn) [CR2, Chrysin-5-O-α-L-rhamnoside] = Not satisfied

Say whether COc1ccc(-c2coc3cc(O[C@@H]4O[C@@H](C)[C@H](O)[C@@H](O)[C@H]4O)cc(O[C@@H]4O[C@@H](C)[C@H](O)[C@@H](O)[C@H]4O)c3c2=O)cc1 [BR1, Biochanin A-5,7-di-O-α-L-rhamnoside] shows % Glucose uptake (Rosiglitazone = 100%) of 80% or more.
Not satisfied

* * *

- Test system: HaCaT cells
- protocol notes: Glucose uptake (2-NBDG) in HaCaT keratinocytes
- Type: cell-based
- protocol conditions: 25 μM, +2NBDG 50 μM, 24 h
Quick rule for you: RFU specific at 800000 RFU or higher means Met, lower means Not met.

Below, 4 compounds whose answers are already recorded.
• COc1ccc(-c2coc3cc(O[C@@H]4O[C@@H](C)[C@H](O)[C@@H](O)[C@H]4O)cc(O[C@@H]4O[C@@H](C)[C@H](O)[C@@H](O)[C@H]4O)c3c2=O)cc1 [BR1, Biochanin A-5,7-di-O-α-L-rhamnoside] = Not met
• C[C@@H]1O[C@@H](Oc2cc(O)cc3c2C(=O)CC(c2ccc(O)cc2)O3)[C@H](O)[C@H](O)[C@H]1O (mixture of isomers) [NR1, Naringenin-5-O-α-L-rhamnoside] = Not met
• CC1O[C@@H](Oc2cc(O[C@@H]3OC(C)[C@H](O)C(O)C3O)c3c(=O)cc(-c4ccccc4)oc3c2)C(O)C(O)[C@H]1O (stereo partly drawn) [CR1, Chrysin-di-5,7-O-α-L-rhamnoside] = Not met
• COc1ccc(-c2coc3cc(O)cc(O[C@@H]4O[C@@H](C)[C@H](O)[C@@H](O)[C@H]4O)c3c2=O)cc1 [BR2, Biochanin A 5-O-α-L-rhamnoside] = Met

Say whether CC1O[C@@H](Oc2cc(O)cc3oc(-c4ccccc4)cc(=O)c23)C(O)C(O)[C@H]1O (stereo partly drawn) [CR2, Chrysin-5-O-α-L-rhamnoside] shows RFU specific of 800000 RFU or more.
Not met
